System: Human peripheral blood mononuclear cells
assay-summary: Human Concanavalin-A Proliferation Assay (Con HU Assay)
Assay type: cell-based
test-parameters: Homo sapiens, PBMC, concanavalin-A stimulated human PBMC, tritiated thymidine
Measured IC50, listed per entry.
Please reply with the bare figure in nM and do not write the unit itself.

O=C(Nc1ccc(-n2nc(C(F)(F)F)cc2C(F)(F)F)cc1)C1CC=CCC1 (stereo not shown)    51
N#Cc1ccccc1NC(=O)c1ccc(-n2nc(C(F)(F)F)cc2C(F)(F)F)cc1    485
O=C(Nc1ccc(-n2nc(-c3ccoc3)cc2OC(F)F)cc1)c1ccncc1F    261

The compound listed as CCOC(=O)c1cccc(NC(=O)Nc2ccc(-n3nc(C(F)(F)F)cc3C(F)(F)F)cc2)c1 shows IC50 equal to 2840

###

Test system: Human peripheral blood mononuclear cells
assay-summary: Human Concanavalin-A Proliferation Assay (Con HU Assay)
Format: cell-based
test-parameters: Homo sapiens, PBMC, concanavalin-A stimulated human PBMC, tritiated thymidine
metric: pIC50
In plain terms, pIC50 is the concentration in mol/L turned into minus its base-10 logarithm.

Some entries whose results are on file:
Nc1cc(NC(=O)c2ccccc2F)ccc1-n1nc(C(F)(F)F)cc1C(F)(F)F [Example 298]    6.48
O=C(Nc1ccc(-n2nc(C(F)(F)F)cc2C(F)(F)F)cc1)c1ccc(Br)cc1 [Example 85]    6.56
COc1ccc(C(=O)Nc2ccc(-n3nc(C(F)(F)F)cc3C(F)(F)F)cc2)c(Cl)c1 [Example 215]    6.90
COc1ccc(Br)c(C(=O)Nc2ccc(-n3nc(C(F)(F)F)cc3C(F)(F)F)cc2)c1 [Example 219]    6.67
O=C(Nc1ccc(-n2nc(C(F)(F)F)cc2C(F)(F)F)cc1)c1ccnc(Cl)c1 [Example 245]    6.55

Next, consider the following compound.
Documented pIC50 of C=C(C)C(=O)Nc1ccc(-n2nc(C(F)(F)F)cc2C(F)(F)F)cc1 [Example 295] : 6.63

###

System: Human peripheral blood mononuclear cells
assay-summary: Human Concanavalin-A Proliferation Assay (Con HU Assay)
Type: cell-based
test-parameters: Homo sapiens, PBMC, concanavalin-A stimulated human PBMC, tritiated thymidine
# maps each entry to its pIC50
Please treat pIC50 as minus the base-10 logarithm of the molar concentration.

O=C(Nc1ccc(-n2nc(C(F)(F)F)cc2C(F)(F)F)cc1)c1cccnc1 [Example 106]    6.63
O=C(Nc1ccc(-n2nc(C(F)(F)F)cc2C(F)(F)F)cc1)c1ccc(Cl)s1 [Example 253]    6.35
O=C(Nc1ccc(-n2nc(C(F)(F)F)cc2C(F)(F)F)cc1)C1=CCCC1 [Example 10]    6.94
O=C(Nc1ccc(-n2nc(-c3ccncc3)cc2C(F)(F)F)cc1)c1ccncc1F [Example 318]    6.59
O=C(Nc1ccc(-n2nc(C(F)(F)F)cc2C(F)(F)F)cc1)c1cccnc1F [Example 164]    7.41

Now turn to the next molecule.
Field pIC50 (entry Cn1ccc(-c2cc(OC(F)F)n(-c3ccc(NC(=O)c4ccncc4F)cc3)n2)c1 [Example 358] ) reads 6.69

###

metric: melting point

Some solved cases for reference:
Cc1noc(C)c1C(=O)Nc1ccc(-n2nc(C(F)(F)F)cc2C)cc1    180 to 181 °C
C=C(C)C(=O)Nc1ccc(-n2nc(C(F)(F)F)cc2C(F)(F)F)cc1    160 to 162 °C
O=C(Nc1ccc(-n2nc(C(F)(F)F)cc2C(F)(F)F)cc1)c1c(Cl)ccc([N+](=O)[O-])c1Cl    160 to 161 °C
Cc1nnsc1C(=O)Nc1ccc(-n2nc(C(F)(F)F)cc2Br)cc1    145 to 147 °C
O=C(Nc1ccc(-n2nc(C(F)(F)F)cc2C(F)(F)F)cc1)c1ccc(O)c([N+](=O)[O-])c1    193 to 194 °C
COc1ccc(Br)c(C(=O)Nc2ccc(-n3nc(C(F)(F)F)cc3C(F)(F)F)cc2)c1    179 to 181 °C
O=C(Nc1ccc(-n2nc(C(F)(F)F)cc2C(F)(F)F)cc1)c1cc2ccccc2o1    213 to 215 °C

// melting point lookup, compound = N#Cc1ccccc1NC(=O)c1ccc(-n2nc(C(F)(F)F)cc2C(F)(F)F)cc1 , result: 203 to 205 °C

###

Below: a set of entries, each annotated with reported melting point.

Nc1ccccc1C(=O)Nc1ccc(-n2nc(C(F)(F)F)cc2C(F)(F)F)cc1 [Example 163]    204 to 206 °C

Record O=C(Nc1ccccc1)Nc1ccc(-n2nc(C(F)(F)F)cc2C(F)(F)F)cc1 [Example 36] . Reported melting point: 185 to 187 °C

melting point reading for O=C(Nc1ccc(-n2nc(C(F)(F)F)cc2C(F)(F)F)cc1)C1CCCO1 (stereo not drawn) [Example 241] : 113 to 116 °C

Field melting point (entry O=C(Nc1cccc(-n2nc(C(F)(F)F)cc2C(F)(F)F)c1)c1ccc(F)cc1F [Example 203] ) reads 133 to 134 °C

Lookup result for O=C(Nc1ccc(-n2nc(C(F)(F)F)cc2C(F)(F)F)cc1)C1CCOC1 (stereo not drawn) [Example 243] ; measured melting point: 193 to 194 °C

###

melting point listing for selected compounds.

The cases that follow already have their melting point on record.
O=C(Nc1ccc(-n2nc(C(F)(F)F)cc2Br)cc1)c1ccncc1Cl [Example 349]    79 to 82 °C
Cc1cc(C)c(C(=O)Nc2ccc(-n3nc(C(F)(F)F)cc3C(F)(F)F)cc2)c(C)c1 [Example 78]    203 to 205 °C
CCCCC(CC)C(=O)Nc1ccc(-n2nc(C(F)(F)F)cc2C(F)(F)F)cc1 (centres unmarked) [Example 72]    127 to 128 °C
O=C(Nc1ccc(-n2nc(C(F)(F)F)cc2C(F)(F)F)cc1)c1ccc(-n2cccc2)cc1 [Example 46]    249 to 252 °C
Cc1ccccc1C(=O)Nc1ccc(-n2nc(C(F)(F)F)cc2C(F)(F)F)cc1 [Example 96]    165 to 167 °C

Noted for Cc1cc(Br)cc(C)c1NC(=O)Nc1ccc(-n2nc(C(F)(F)F)cc2C(F)(F)F)cc1 [Example 45] : its melting point reads > 230 °C

compound O=C(Nc1ccc(-n2nc(C(F)(F)F)cc2C(F)(F)F)cc1)c1cc(F)ccc1F [Example 211] , melting point observed: 168 to 169 °C

# melting point of O=C(Nc1ccc(F)cc1)c1ccc(-n2nc(C(F)(F)F)cc2C(F)(F)F)cc1 [Example 30] = 194 to 195 °C

###

inhibition at 10 µM listing for selected compounds.
Tested on: Human peripheral blood mononuclear cells
assay-summary: Human Concanavalin-A Proliferation Assay (Con HU Assay)
Assay type: cell-based
test-parameters: Homo sapiens, PBMC, 72 h, concentration 10 μm (in parentheses in the cell); concanavalin-A stimulated human PBMC, 3 days; read-out: % Inhibition of proliferation (at concentrations of 1,10, or 100 μm)
Use % as the unit, but write only the number.

O=C(Nc1ccc(-n2nc(C(F)(F)F)cc2C(F)(F)F)cc1)c1ccc(F)c(F)c1F    100

Item Cc1oncc1C(=O)Nc1ccc(-n2nc(C(F)(F)F)cc2C(F)(F)F)cc1 ; assay system Human peripheral blood mononuclear cells; inhibition at 10 µM reported as 90

Observed inhibition at 10 µM on Human peripheral blood mononuclear cells, entry O=C(Nc1ccc(-n2nc(C(F)(F)F)cc2C(F)(F)F)cc1)c1cc(Cl)cnc1Cl , equals 100

O=C(Nc1ccc(-n2nc(C(F)(F)F)cc2C(F)(F)F)cc1)c1cc(F)c(Cl)cc1F on Human peripheral blood mononuclear cells gives inhibition at 10 µM = 98

###

metric: melting point

The cases that follow already have their melting point on record.
O=C(Nc1ccc(-n2nc(C(F)(F)F)cc2C(F)(F)F)cc1)C1(O)CC1 [Example 17]    198 to 200 °C
O=C(O)c1ccc(C(=O)Nc2ccc(-n3nc(C(F)(F)F)cc3C(F)(F)F)cc2)cc1 [Example 157]    282 to 283 °C
Cc1ccc(C(=O)Nc2ccc(-n3nc(C(F)(F)F)cc3C(F)(F)F)cc2)s1 [Example 44]    200 to 202 °C

Lookup result for Fc1ccc(CNc2ccc(-n3nc(C(F)(F)F)cc3C(F)(F)F)cc2)cc1 [Example 84] ; measured melting point: 92 to 94 °C

The value of melting point measured for the compound O=C(Nc1ccc(-n2nc(C(F)(F)F)cc2C(F)(F)F)cc1)c1csc([N+](=O)[O-])c1 [Example 257] turned out to be 164 to 165 °C

// melting point lookup, compound = Cc1nnsc1C(=O)Nc1ccc(-n2nc(-c3nccs3)cc2C#N)cc1 [Example 340] , result: 230 °C

Per the records, this compound ( COc1ccc(C(=O)Nc2ccc(-n3nc(C(F)(F)F)cc3C(F)(F)F)cc2)cc1 [Example 71] ) has melting point equal to 205 to 207 °C
